- Tested on: SEM cells
- measurement notes: cell viability relative to DMSO control; higher = less cytotoxic
- details: RPMI 5 mM glucose + 10% FBS; 48 h; 0.00702 µM
measured attribute: cell viability (%)
# value in %; strip the unit string

Consider the following illustrative entries.
CC(=O)OCC(CCn1cnc2cnc(N)nc21)COC(C)=O :: 69.2
NC(=O)[C@@H](CCC(F)(F)F)N(Cc1ccc(-c2ncon2)cc1F)[S+](=O)([O-])c1ccc(Cl)cc1 :: 104
NC(=O)c1ncn([C@@H]2O[C@H](CO)[C@@H](O)[C@H]2O)c1N :: 89.9
Cc1ccc(Nc2nccc(N(C)c3ccc4c(C)n(C)nc4c3)n2)cc1[S+](N)(=O)[O-] :: 95.7

Annotate the compound COc1c(C)c2c(c(O)c1C/C=C(\C)CCC(=O)OCCN1CCOCC1)C(=O)OC2 with its measured cell viability.
107

Annotate the compound CO[C@H]1C[C@H]2OC[C@@]2(OC(C)=O)[C@H]3[C@H](OC(=O)C4=CC=CC=C4)[C@]5(O)C[C@H](OC(=O)[C@H](O)[C@@H](NC(=O)OC(C)(C)C)C6=CC=CC=C6)/C(=C(/[C@@H](OC)C(=O)[C@]13C)C5(C)C)C with its measured cell viability.
11.1

Annotate the compound COc1cc([C@@H]2c3cc4c(cc3[C@@H](O)C3COC(=O)C32)OCO4)cc(OC)c1O (some centres not stated) with its measured cell viability.
101

Annotate the compound C\C1=N\N(C(=O)C1)C2=CC=CC=C2 with its measured cell viability.
129

Annotate the compound COc1cc([C@@H]2c3cc4c(cc3[C@@H](O[C@@H]3O[C@@H]5CO[C@@H](C)O[C@H]5[C@H](O)[C@H]3O)[C@H]3COC(=O)[C@H]23)OCO4)cc(OC)c1O with its measured cell viability.
91.8

Annotate the compound CN1C(=O)\C(=C/C2=C1N=C(NC3CCOCC3)N=C2)OC4=C(F)C=C(F)C=C4 with its measured cell viability.
125

Annotate the compound NC(=O)Cc1cccc(C(=O)c2ccccc2)c1N with its measured cell viability.
90.7

Annotate the compound COC1=CC=CC(=C1/C2=N/CC3=C(N=C(NC4=CC(=C(C=C4)C(O)=O)OC)N=C3)C5=CC=C(Cl)C=C25)F with its measured cell viability.
85.4

Annotate the compound CC(C)C1=N[N](C\2=C1C(=O)N\C(=N2)CC3=CC=C(OCCO)C=C3)C4=C(Cl)C=CC=C4Cl with its measured cell viability.
85.3

Annotate the compound COc1ccc(-c2cc3c(C)nc(N)nc3n([C@H]3CC[C@H](OCCO)CC3)c2=O)cn1 with its measured cell viability.
97.8

Annotate the compound Cc1ccccc1C(C(=O)NC1CCCC1)N(C(=O)Cn1cnc2ccccc21)c1cccc(F)c1 (configuration not stated) with its measured cell viability.
121

Annotate the compound NC(=O)c1c(OCc2c(F)cc(Br)cc2F)nsc1NC(=O)NCCCCN1CCCC1 with its measured cell viability.
78.7

Annotate the compound O=C1N\N=C(\C[C@@H]2CCN(C2)C(=O)C3CC3)N1C4=CC=C(C=C4)C5=CC=C6OC=CC6=C5 with its measured cell viability.
120
